Values from ChEMBL document CHEMBL5223179

Target: Protein cereblon/DNA damage-binding protein 1 (Homo sapiens, UniProt Q96SW2)
Sequence (Q96SW2 whole entry): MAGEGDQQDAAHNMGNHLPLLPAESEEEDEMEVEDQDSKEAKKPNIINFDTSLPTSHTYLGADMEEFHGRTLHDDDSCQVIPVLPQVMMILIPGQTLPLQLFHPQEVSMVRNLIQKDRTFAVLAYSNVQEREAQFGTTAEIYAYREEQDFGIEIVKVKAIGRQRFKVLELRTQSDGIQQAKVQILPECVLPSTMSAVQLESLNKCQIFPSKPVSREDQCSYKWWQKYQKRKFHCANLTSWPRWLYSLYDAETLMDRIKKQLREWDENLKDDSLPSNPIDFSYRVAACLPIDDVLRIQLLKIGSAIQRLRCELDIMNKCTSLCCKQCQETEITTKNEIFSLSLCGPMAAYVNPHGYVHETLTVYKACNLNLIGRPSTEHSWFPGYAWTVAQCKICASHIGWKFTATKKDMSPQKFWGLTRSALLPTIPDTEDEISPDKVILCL
Sequence (Q16531 whole entry, further chain): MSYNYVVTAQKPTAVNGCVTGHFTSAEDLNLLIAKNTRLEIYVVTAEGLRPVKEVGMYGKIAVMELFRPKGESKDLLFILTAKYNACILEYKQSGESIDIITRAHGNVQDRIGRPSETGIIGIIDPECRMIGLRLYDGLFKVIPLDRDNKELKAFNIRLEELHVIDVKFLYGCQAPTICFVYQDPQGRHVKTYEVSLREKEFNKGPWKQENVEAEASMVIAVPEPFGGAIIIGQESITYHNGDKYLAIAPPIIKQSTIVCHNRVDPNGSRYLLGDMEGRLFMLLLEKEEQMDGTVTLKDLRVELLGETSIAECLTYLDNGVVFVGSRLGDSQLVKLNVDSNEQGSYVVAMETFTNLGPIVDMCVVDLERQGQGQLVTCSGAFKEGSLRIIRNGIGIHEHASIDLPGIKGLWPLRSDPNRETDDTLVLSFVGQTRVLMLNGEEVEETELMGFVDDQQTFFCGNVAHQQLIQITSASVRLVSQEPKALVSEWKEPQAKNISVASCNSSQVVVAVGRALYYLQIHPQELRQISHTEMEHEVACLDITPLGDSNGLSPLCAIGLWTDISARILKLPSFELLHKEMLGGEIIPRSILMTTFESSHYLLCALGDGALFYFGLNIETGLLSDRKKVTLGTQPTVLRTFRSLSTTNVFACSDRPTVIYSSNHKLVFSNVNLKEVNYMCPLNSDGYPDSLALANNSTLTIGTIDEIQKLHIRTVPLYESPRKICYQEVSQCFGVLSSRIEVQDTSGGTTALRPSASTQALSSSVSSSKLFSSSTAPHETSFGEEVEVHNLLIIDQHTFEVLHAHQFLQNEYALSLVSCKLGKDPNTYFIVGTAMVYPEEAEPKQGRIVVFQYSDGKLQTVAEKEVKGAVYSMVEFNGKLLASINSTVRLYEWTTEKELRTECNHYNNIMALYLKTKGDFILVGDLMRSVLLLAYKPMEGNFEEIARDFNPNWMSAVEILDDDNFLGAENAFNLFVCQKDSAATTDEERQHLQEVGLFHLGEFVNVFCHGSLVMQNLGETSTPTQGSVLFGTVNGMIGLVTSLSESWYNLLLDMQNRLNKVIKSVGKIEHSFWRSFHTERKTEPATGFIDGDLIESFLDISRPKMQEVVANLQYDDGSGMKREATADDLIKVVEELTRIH
Parameter measured: IC50 (nM)
Numbers only, in nM.

query: Would you mind telling me what IC50 value was observed for Cc1nc(Nc2ncc(C(=O)Nc3c(C)cccc3Cl)s2)cc(N2CCN(CCCNC(=O)COc3cccc4c3C(=O)N(C3CCC(=O)NC3=O)C4=O)CC2)n1 (stereo unspecified) ?
result: 1030

---

Biological target: Tyrosine-protein kinase Lck (Homo sapiens, UniProt P06239)
Sequence (P06239 whole entry): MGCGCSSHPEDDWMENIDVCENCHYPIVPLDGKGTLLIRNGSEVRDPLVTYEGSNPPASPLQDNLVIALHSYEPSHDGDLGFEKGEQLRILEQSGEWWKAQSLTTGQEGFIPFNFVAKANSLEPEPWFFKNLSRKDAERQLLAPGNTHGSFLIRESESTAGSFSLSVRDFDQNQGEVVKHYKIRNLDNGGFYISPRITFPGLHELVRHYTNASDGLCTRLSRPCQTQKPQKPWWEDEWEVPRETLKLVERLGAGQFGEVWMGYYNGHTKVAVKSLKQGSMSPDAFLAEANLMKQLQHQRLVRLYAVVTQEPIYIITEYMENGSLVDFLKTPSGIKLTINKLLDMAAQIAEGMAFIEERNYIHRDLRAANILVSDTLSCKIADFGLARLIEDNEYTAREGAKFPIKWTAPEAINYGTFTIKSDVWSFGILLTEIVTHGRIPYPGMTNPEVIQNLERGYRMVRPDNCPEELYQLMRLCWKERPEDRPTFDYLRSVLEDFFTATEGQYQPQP
Experiment: Induction of HiBiT-tagged LCK degradation in human KOPT-K1 cells after 4 hrs by microplate reader analysis
Assay type: cell-based
Provide the reported DC50 of each item.
One number for each entry, in nM.

Some compounds with known DC50 results, for comparison:
Compound: Cc1nc(Nc2ncc(C(=O)Nc3c(C)cccc3Cl)s2)cc(N2CCN(CCCNC(=O)COc3ccc(C4CCC(=O)NC4=O)cc3)CC2)n1 (centres undefined)
Test target: Tyrosine-protein kinase Lck (Homo sapiens, UniProt P06239)
Measurement units: nM
DC50: 6

Compound: Cc1nc(Nc2ncc(C(=O)Nc3c(C)cccc3Cl)s2)cc(N2CCN(CCCNC(=O)COc3ccc(N4CCC(=O)NC4=O)cc3)CC2)n1
Test target: Tyrosine-protein kinase Lck (Homo sapiens, UniProt P06239)
Measurement units: nM
DC50: 15

Compound: Cc1nc(Nc2ncc(C(=O)Nc3c(C)cccc3Cl)s2)cc(N2CCN(CCCNC(=O)COc3cccc4c3C(=O)N(C3CCC(=O)NC3=O)C4=O)CC2)n1 (centres undefined)
Test target: Tyrosine-protein kinase Lck (Homo sapiens, UniProt P06239)
Measurement units: nM
DC50: 13

Okay, now this compound:
query: Would you mind telling me what DC50 value was observed for Cc1nc(Nc2ncc(C(=O)Nc3c(C)cccc3Cl)s2)cc(N2CCN(CCCC(=O)N3CCN(c4ccc(C5CCC(=O)NC5=O)cc4)CC3)CC2)n1 (centres undefined) ?
result: 8
